The measured values listed here are drawn from ChEMBL document CHEMBL2203043.

Property: Ki; scope: individual compounds
biological target: UniProtKB Q16790
assay readout: Ki (nM)

>>> df
                                 smiles_text  test_value
 0  NS(=O)(=O)c1cn(Cc2nc3ccccc3c(=O)n2-c2ccccc2)ccc1=O        76.2
 1              NS(=O)(=O)c1cn(CC2CC2)ccc1=O        85.1
 2            N#CCCCn1ccc(=O)c(S(N)(=O)=O)c1        67.2
 3  CC1=NN(c2nc(N)nc(Cn3ccc(=O)c(S(N)(=O)=O)c3)n2)C(C)(C)C1        66.3
 4  NS(=O)(=O)c1cn(CC(=O)NS(=O)(=O)c2ccccc2Cl)ccc1=O        29.7
 5  Cc1ccc(-n2c(Cn3ccc(=O)c(S(N)(=O)=O)c3)nc3ccccc3c2=O)cc1        70.3
 6         CCOC(=O)Cn1ccc(=O)c(S(N)(=O)=O)c1        60.1
 7                 NS(=O)(=O)c1cn(CCO)ccc1=O        54.7
 8  CCN(c1ccccc1)c1nc(N)nc(Cn2ccc(=O)c(S(N)(=O)=O)c2)n1        50.1
 9      Cc1noc(C)c1Cn1ccc(=O)c(S(N)(=O)=O)c1        23.1
10  NS(=O)(=O)c1cn(CC(=O)Nc2cccc([N+](=O)[O-])c2)ccc1=O        33.4
11  NS(=O)(=O)c1cn(CC(=O)NS(=O)(=O)c2ccc(Cl)cc2)ccc1=O        38.6
12  NS(=O)(=O)c1cn(Cc2nc3ccccc3c(=O)n2-c2ccc(Cl)cc2)ccc1=O        71.2
13  CN(C)c1nc(N)nc(Cn2ccc(=O)c(S(N)(=O)=O)c2)n1        16.5
